The reported numbers originate from ChEMBL document CHEMBL4715861.

Known remaining at 1 h of a selection of compounds
test: Stability in human microsomes assessed as parent compound remaining at 60 mins; format: ADME, Microsome; conditions: read-out: Stabilty

{"sample.smiles": "CN[C@@H](C)C(=O)N[C@H](C(=O)N1CCC[C@H]1C(=O)Nc1cc2c(NCC#CC#CCNc3ncnc4cc(OC)c(NC(=O)[C@@H]5CCCN5C(=O)[C@@H](NC(=O)[C@H](C)NC)C(C)(C)C)cc34)ncnc2cc1OC)C(C)(C)C", "units.text": "%", "remaining at 1 h": 64}
{"sample.smiles": "CN[C@@H](C)C(=O)N[C@H](C(=O)N1CCC[C@H]1C(=O)Nc1cc2c(N[C@H]3CC[C@H](Nc4ncnc5cc(OC)c(NC(=O)[C@@H]6CCCN6C(=O)[C@@H](NC(=O)[C@H](C)NC)C(C)(C)C)cc45)CC3)ncnc2cc1OC)C(C)(C)C", "units.text": "%", "remaining at 1 h": 86}

====

pIC50: −log10 of the molar value.
# UniProtKB P08684: pIC50 values follow
metric: pIC50

{"sample.smiles": "CN[C@@H](C)C(=O)N[C@H](C(=O)N1CCC[C@H]1C(=O)Nc1cc2c(NCCOCCOCCNc3ncnc4cc(OC)c(NC(=O)[C@@H]5CCCN5C(=O)[C@@H](NC(=O)[C@H](C)NC)C(C)(C)C)cc34)ncnc2cc1OC)C(C)(C)C", "target.entity": "UniProtKB P08684", "metric": "pIC50", "value": 5.25}
{"sample.smiles": "CN[C@@H](C)C(=O)N[C@H](C(=O)N1CCC[C@H]1C(=O)Nc1cc2c(NC[C@H]3CC[C@H](CNc4ncnc5cc(OC)c(NC(=O)[C@@H]6CCCN6C(=O)[C@@H](NC(=O)[C@H](C)NC)C(C)(C)C)cc45)CC3)ncnc2cc1OC)C(C)(C)C", "target.entity": "UniProtKB P08684", "metric": "pIC50", "value": 6.34}
{"sample.smiles": "CN[C@@H](C)C(=O)N[C@H](C(=O)N1CCC[C@H]1C(=O)Nc1cc2c(OCC#CCOc3ncnc4cc(OC)c(NC(=O)[C@@H]5CCCN5C(=O)[C@@H](NC(=O)[C@H](C)NC)C(C)(C)C)cc34)ncnc2cc1OC)C(C)(C)C", "target.entity": "UniProtKB P08684", "metric": "pIC50", "value": 6.07}
{"sample.smiles": "CN[C@@H](C)C(=O)N[C@H](C(=O)N1CCC[C@H]1C(=O)Nc1cc2c(N[C@H]3CC[C@@H](Nc4ncnc5cc(OC)c(NC(=O)[C@@H]6CCCN6C(=O)[C@@H](NC(=O)[C@H](C)NC)C(C)(C)C)cc45)CC3)ncnc2cc1OC)C(C)(C)C", "target.entity": "UniProtKB P08684", "metric": "pIC50", "value": 5.26}

====

assay: Stability in rat microsomes assessed as parent compound remaining at 60 mins; type: ADME, Microsome; conditions: read-out: Stabilty

{"sample.smiles": "CN[C@@H](C)C(=O)N[C@H](C(=O)N1CCC[C@H]1C(=O)Nc1cc2c(NCC#CC#CCNc3ncnc4cc(OC)c(NC(=O)[C@@H]5CCCN5C(=O)[C@@H](NC(=O)[C@H](C)NC)C(C)(C)C)cc34)ncnc2cc1OC)C(C)(C)C", "remaining at 1 h": "87%"}
{"sample.smiles": "CN[C@@H](C)C(=O)N[C@H](C(=O)N1CCC[C@H]1C(=O)Nc1cc2c(N[C@H]3CC[C@H](Nc4ncnc5cc(OC)c(NC(=O)[C@@H]6CCCN6C(=O)[C@@H](NC(=O)[C@H](C)NC)C(C)(C)C)cc45)CC3)ncnc2cc1OC)C(C)(C)C", "remaining at 1 h": "100%"}

====

Measured remaining at 1 h accompanies every entry in the list below.
test: Stability in mouse microsomes assessed as parent compound remaining at 60 mins; format: ADME, Microsome; details: read-out: Stabilty

{"sample.smiles": "CN[C@@H](C)C(=O)N[C@H](C(=O)N1CCC[C@H]1C(=O)Nc1cc2c(NCC#CC#CCNc3ncnc4cc(OC)c(NC(=O)[C@@H]5CCCN5C(=O)[C@@H](NC(=O)[C@H](C)NC)C(C)(C)C)cc34)ncnc2cc1OC)C(C)(C)C", "remaining at 1 h / %": 62}
{"sample.smiles": "CN[C@@H](C)C(=O)N[C@H](C(=O)N1CCC[C@H]1C(=O)Nc1cc2c(N[C@H]3CC[C@H](Nc4ncnc5cc(OC)c(NC(=O)[C@@H]6CCCN6C(=O)[C@@H](NC(=O)[C@H](C)NC)C(C)(C)C)cc45)CC3)ncnc2cc1OC)C(C)(C)C", "remaining at 1 h / %": 94}

====

test system: MDA-MB-231; test: Cytotoxicity against human MDA-MB-231 cells; assay type: functional, cell-based
Listed here are compounds together with their documented IC50.

{"sample.smiles": "CN[C@@H](C)C(=O)N[C@H](C(=O)N1CCC[C@H]1C(=O)Nc1cc2c(NCc3ccc(CNc4ncnc5cc(OC)c(NC(=O)[C@@H]6CCCN6C(=O)[C@@H](NC(=O)[C@H](C)NC)C(C)(C)C)cc45)cc3)ncnc2cc1OC)C(C)(C)C", "target.entity": "MDA-MB-231", "units.text": "nM", "IC50": 4.3}
{"sample.smiles": "CN[C@@H](C)C(=O)N[C@H](C(=O)N1CCC[C@H]1C(=O)Nc1cc2c(N[C@H]3CC[C@H](Nc4ncnc5cc(OC)c(NC(=O)[C@@H]6CCCN6C(=O)[C@@H](NC(=O)[C@H](C)NC)C(C)(C)C)cc45)CC3)ncnc2cc1OC)C(C)(C)C", "target.entity": "MDA-MB-231", "units.text": "nM", "IC50": 0.14}

====

test system: MDA-MB-231; assay: Cytotoxicity against human MDA-MB-231 cells; type: functional, cell-based
pIC50: −log10 of the molar value.

{"sample.smiles": "CN[C@@H](C)C(=O)N[C@H](C(=O)N1CCC[C@H]1C(=O)Nc1cc2c(NCCCCCCCCNc3ncnc4cc(OC)c(NC(=O)[C@@H]5CCCN5C(=O)[C@@H](NC(=O)[C@H](C)NC)C(C)(C)C)cc34)ncnc2cc1OC)C(C)(C)C", "pIC50": 9.52}
{"sample.smiles": "CN[C@@H](C)C(=O)N[C@H](C(=O)N1CCC[C@H]1C(=O)Nc1cc2c(N[C@H]3CC[C@@H](Nc4ncnc5cc(OC)c(NC(=O)[C@@H]6CCCN6C(=O)[C@@H](NC(=O)[C@H](C)NC)C(C)(C)C)cc45)CC3)ncnc2cc1OC)C(C)(C)C", "pIC50": 8.23}

====

test system: MDA-MB-231; assay: Cytotoxicity against human MDA-MB-231 cells; assay type: functional, cell-based
pIC50: −log10 of the molar value.
Reported pIC50 by item:
metric: pIC50

{"sample.smiles": "CN[C@@H](C)C(=O)N[C@H](C(=O)N1CCC[C@H]1C(=O)Nc1cc2c(NCC#CC#CCNc3ncnc4cc(OC)c(NC(=O)[C@@H]5CCCN5C(=O)[C@@H](NC(=O)[C@H](C)NC)C(C)(C)C)cc34)ncnc2cc1OC)C(C)(C)C", "value": 9.52}
{"sample.smiles": "CN[C@@H](C)C(=O)N[C@H](C(=O)N1CCC[C@H]1C(=O)Nc1cc2c(NCCOCCOCCNc3ncnc4cc(OC)c(NC(=O)[C@@H]5CCCN5C(=O)[C@@H](NC(=O)[C@H](C)NC)C(C)(C)C)cc34)ncnc2cc1OC)C(C)(C)C", "value": 8.30}
{"sample.smiles": "CN[C@@H](C)C(=O)N[C@H](C(=O)N1CCC[C@H]1C(=O)Nc1cc2c(N3CCN(c4ncnc5cc(OC)c(NC(=O)[C@@H]6CCCN6C(=O)[C@@H](NC(=O)[C@H](C)NC)C(C)(C)C)cc45)CC3)ncnc2cc1OC)C(C)(C)C", "value": 8.64}
{"sample.smiles": "CN[C@@H](C)C(=O)N[C@H](C(=O)N1CCC[C@H]1C(=O)Nc1cc2c(OCC#CC#CCOc3ncnc4cc(OC)c(NC(=O)[C@@H]5CCCN5C(=O)[C@@H](NC(=O)[C@H](C)NC)C(C)(C)C)cc34)ncnc2cc1OC)C(C)(C)C", "value": 9.70}

====

Parameter 'readout' = pIC50; parameter 'system' = Cytochrome P450 3A4 (Homo sapiens).
Sequence (P08684 whole entry): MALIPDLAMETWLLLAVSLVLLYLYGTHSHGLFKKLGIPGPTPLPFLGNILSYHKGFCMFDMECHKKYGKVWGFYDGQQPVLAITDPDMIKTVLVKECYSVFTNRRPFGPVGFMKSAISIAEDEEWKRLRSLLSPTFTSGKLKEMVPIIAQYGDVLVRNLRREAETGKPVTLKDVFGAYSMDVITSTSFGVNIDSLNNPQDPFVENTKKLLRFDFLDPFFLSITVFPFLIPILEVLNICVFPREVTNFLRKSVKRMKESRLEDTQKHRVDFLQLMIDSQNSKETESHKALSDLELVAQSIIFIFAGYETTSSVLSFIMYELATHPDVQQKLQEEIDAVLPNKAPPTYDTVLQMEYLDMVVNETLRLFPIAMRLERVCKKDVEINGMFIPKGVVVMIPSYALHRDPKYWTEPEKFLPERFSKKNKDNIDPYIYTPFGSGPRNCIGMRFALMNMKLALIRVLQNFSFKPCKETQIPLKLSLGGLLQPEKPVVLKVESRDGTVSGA
pIC50: −log10 of the molar value.

{"sample.smiles": "CN[C@@H](C)C(=O)N[C@H](C(=O)N1CCC[C@H]1C(=O)Nc1cc2c(NC[C@H]3CC[C@H](CNc4ncnc5cc(OC)c(NC(=O)[C@@H]6CCCN6C(=O)[C@@H](NC(=O)[C@H](C)NC)C6CCCCC6)cc45)CC3)ncnc2cc1OC)C1CCCCC1", "target.entity": "Cytochrome P450 3A4 (Homo sapiens)", "value.comparator": "=", "pIC50": 6.18}
{"sample.smiles": "CN[C@@H](C)C(=O)N[C@H](C(=O)N1CCC[C@H]1C(=O)Nc1cc2c(NCCCCCCCCNc3ncnc4cc(OC)c(NC(=O)[C@@H]5CCCN5C(=O)[C@@H](NC(=O)[C@H](C)NC)C(C)(C)C)cc34)ncnc2cc1OC)C(C)(C)C", "target.entity": "Cytochrome P450 3A4 (Homo sapiens)", "value.comparator": "=", "pIC50": 6.37}
{"sample.smiles": "CN[C@@H](C)C(=O)N[C@H](C(=O)N1CCC[C@H]1C(=O)Nc1cc2c(NC[C@H]3CC[C@@H](CNc4ncnc5cc(OC)c(NC(=O)[C@@H]6CCCN6C(=O)[C@@H](NC(=O)[C@H](C)NC)C(C)(C)C)cc45)CC3)ncnc2cc1OC)C(C)(C)C", "target.entity": "Cytochrome P450 3A4 (Homo sapiens)", "value.comparator": ">", "pIC50": 6.21}
